TARGET ENTITY: ULK1 (Homo sapiens)
Sequence (O75385 1-283): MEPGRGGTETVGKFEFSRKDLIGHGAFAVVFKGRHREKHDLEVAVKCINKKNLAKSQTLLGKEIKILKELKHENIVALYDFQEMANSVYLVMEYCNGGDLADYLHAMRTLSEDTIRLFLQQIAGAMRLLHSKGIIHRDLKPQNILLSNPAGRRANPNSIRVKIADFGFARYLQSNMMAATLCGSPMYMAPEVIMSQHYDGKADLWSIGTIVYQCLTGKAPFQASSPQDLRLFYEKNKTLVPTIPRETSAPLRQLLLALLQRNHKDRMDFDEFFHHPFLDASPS
MEASURE NAME: Kd (nM)
// note: answer is a bare numeric in nM

Inquiry: Requested field: Kd. Item: CN1CCc2cc(Nc3ncc(C4CC4)c(NCCCNC(=O)C4CCC4)n3)ccc2C1
Reply text: 3.4
